Below: a set of entries, each annotated with reported protein stability index.
B1: PDS5B (parent)
chain: IYKKYALQSAAGKDAAKQIAWIKD

variants of: B1; test: protein stability index of a GFP-peptide fusion (GPS, HEK-293T) (PSI 1-6); higher = more stable; conditions: c terminus: a fixed tail appended;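 further: lentivirally expressed fusions sorted by FACS into six bins by GFP to DsRed ratio, PSI derived from sequencing read proportions per bin multiplied by bin number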

residue_change=A20I test_value=2.31
residue_change=Y5M test_value=1.91
residue_change=G12T test_value=1.71

# ---- query variant ----
Query string: Supply reported protein stability index belonging to this variant: Y2W
Result string: 2.32
